TESTED_TARGET: Blk(m) (Mus musculus)
Construct: purchased Upstate Biotechnology (Dundee, UK), KinaseProfiler service
Sequence (P16277 whole entry): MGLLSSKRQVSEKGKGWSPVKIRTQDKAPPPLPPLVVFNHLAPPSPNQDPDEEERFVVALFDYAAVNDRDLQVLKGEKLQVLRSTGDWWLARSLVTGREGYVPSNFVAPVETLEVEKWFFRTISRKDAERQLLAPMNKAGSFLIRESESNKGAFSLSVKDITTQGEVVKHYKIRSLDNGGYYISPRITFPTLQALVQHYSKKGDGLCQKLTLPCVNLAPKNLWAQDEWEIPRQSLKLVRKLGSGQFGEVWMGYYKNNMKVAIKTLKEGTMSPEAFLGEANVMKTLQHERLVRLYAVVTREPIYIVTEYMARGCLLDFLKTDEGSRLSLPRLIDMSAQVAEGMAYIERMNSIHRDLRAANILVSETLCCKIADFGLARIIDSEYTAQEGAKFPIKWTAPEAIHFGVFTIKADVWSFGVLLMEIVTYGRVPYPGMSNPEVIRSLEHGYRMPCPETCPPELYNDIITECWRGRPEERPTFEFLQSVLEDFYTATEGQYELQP
EXPERIMENT_SUMMARY: Upstate KinaseProfiler enzyme assay, Blk
Assay type: biochemical
RECORDED_CONDITIONS: 500 nM compound; read-out: Percent inhibition at 500 nM Blk(m)
Method: Further enzyme assays were conducted at Upstate Biotechnology (Dundee, UK) in the KinaseProfiler™ Assay system. The general protocol is as follows. All kinases are pre-diluted to a 10× working concentration prior to addition into the assay. The composition of the dilution buffer for the kinases is 20 mM MOPS pH 7.0, 1 mM EDTA, 0.1% β-mercaptoethanol, 0.01% Brij-35, 5% glycerol, 1 mg/ml BSA. All substrates are dissolved and diluted to working stocks in de-ionised water.
RECORDED_METRIC: inhibition at 0.5 µM (%)

[[record]]
item_smiles = "C=CC(=O)Nc1ccc(Sc2nc(Nc3cccc(OC)c3)ncc2C)cc1"
recorded_metric = "inhibition at 0.5 µM"
observed_measurement = 86

[[record]]
item_smiles = "CC(=O)Nc1ccc(Sc2nc(Nc3ccc(N4CCOCC4)cc3)ncc2C)cc1"
recorded_metric = "inhibition at 0.5 µM"
observed_measurement = 9

[[record]]
item_smiles = "C=CC(=O)Nc1ccc(Sc2nc(Nc3cccc(N4CCN(C)CC4)c3)ncc2C)cc1"
recorded_metric = "inhibition at 0.5 µM"
observed_measurement = 99

[[record]]
item_smiles = "C=CC(=O)Nc1ccc(Sc2nc(Nc3ccc(OC)c(NS(C)(=O)=O)c3)ncc2C)cc1"
recorded_metric = "inhibition at 0.5 µM"
observed_measurement = 30

[[record]]
item_smiles = "C=CC(=O)Nc1ccc(Sc2ccnc(Nc3cccc(C#N)c3)n2)cc1"
recorded_metric = "inhibition at 0.5 µM"
observed_measurement = 100

[[record]]
item_smiles = "C=CC(=O)Nc1ccc(Sc2ccnc(Nc3ccc(OC)c(O)c3)n2)cc1"
recorded_metric = "inhibition at 0.5 µM"
observed_measurement = 100

[[record]]
item_smiles = "C=CC(=O)NCc1ccc(Sc2ccnc(Nc3ccc(N4CCOCC4)cc3)n2)cc1"
recorded_metric = "inhibition at 0.5 µM"
observed_measurement = 100

[[record]]
item_smiles = "C=CC(=O)Nc1ccc(Sc2ccnc(Nc3ccc(N4CCN(C)CC4)cc3)n2)cc1"
recorded_metric = "inhibition at 0.5 µM"
observed_measurement = 99

[[record]]
item_smiles = "O=C(/C=C/Cl)Nc1cccc(Sc2ccnc(Nc3ccc(N4CCOCC4)cc3)n2)c1"
recorded_metric = "inhibition at 0.5 µM"
observed_measurement = 99

[[record]]
item_smiles = "Cc1cc(N)ccc1Sc1nc(Nc2ccc(N3CCOCC3)cc2)ncc1C"
recorded_metric = "inhibition at 0.5 µM"
observed_measurement = 50

[[record]]
item_smiles = "C=CC(=O)Nc1cccc(Sc2ccnc(Nc3cccc(N4CCOCC4)c3)n2)c1"
recorded_metric = "inhibition at 0.5 µM"
observed_measurement = 100

[[record]]
item_smiles = "C=CC(=O)Nc1ccc(Sc2ccnc(Nc3ccc(C(=O)OC)cc3)n2)cc1"
recorded_metric = "inhibition at 0.5 µM"
observed_measurement = 48

[[record]]
item_smiles = "C=CC(=O)Nc1cccc(Nc2nccc(Sc3ccc(OC)cc3)n2)c1"
recorded_metric = "inhibition at 0.5 µM"
observed_measurement = 59

[[record]]
item_smiles = "C=CC(=O)Nc1ccc(Sc2nc(Nc3ccc(N4CCC(CO)CC4)cc3)ncc2C)cc1"
recorded_metric = "inhibition at 0.5 µM"
observed_measurement = 88

[[record]]
item_smiles = "C=C(C)C(=O)Nc1cccc(Sc2ccnc(Nc3ccc(N4CCOCC4)cc3)n2)c1"
recorded_metric = "inhibition at 0.5 µM"
observed_measurement = 100

